- Experimental System: KIAA 1361 (baculovirus expressed human KIAA 1361 kinase domain 2-322) (Homo sapiens)
- Sequence (Q7L7X3 2-322): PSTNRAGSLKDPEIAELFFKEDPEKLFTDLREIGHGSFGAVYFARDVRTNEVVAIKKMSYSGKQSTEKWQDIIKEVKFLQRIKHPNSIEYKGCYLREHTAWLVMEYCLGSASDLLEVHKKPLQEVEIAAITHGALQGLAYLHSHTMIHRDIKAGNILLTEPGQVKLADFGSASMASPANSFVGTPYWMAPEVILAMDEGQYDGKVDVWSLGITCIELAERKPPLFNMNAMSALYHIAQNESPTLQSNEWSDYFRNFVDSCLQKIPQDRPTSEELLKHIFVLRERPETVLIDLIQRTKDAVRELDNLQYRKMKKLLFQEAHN
pIC50: −log10 of the molar value.
Item-by-item account of pIC50

Use the examples below as a reference point.
1. COc1cc2cc(C(=O)NCC(=O)NC3CCCc4ccccc43)[nH]c2cc1OC (stereo not drawn) :: 5.30 to 6.30
2. O=C(CNC(=O)c1ccc2ccccc2c1)NC1CCCc2ccccc21 (stereo not drawn) :: 5.30 to 6.30
3. O=C(CC(NC(=O)c1ccccc1)c1ccccc1)NCC(=O)NC1CCCc2ccccc21 (stereo not drawn) :: < 5.30
4. CCc1ccc(-c2ccc(C(=O)NCC(=O)NCc3ccccc3C)cc2)cc1 :: 6.30 to 7.30

The reported pIC50 value, KIAA 1361 (baculovirus expressed human KIAA 1361 kinase domain 2-322) (Homo sapiens), for O=C(CNC(=O)c1ccc(N2CCCCC2)cc1)NC1CCCc2ccccc21 (stereo not drawn) reads 5.30 to 6.30

The reported pIC50 value, KIAA 1361 (baculovirus expressed human KIAA 1361 kinase domain 2-322) (Homo sapiens), for CCc1ccc(-c2ccc(C(=O)NCC(=O)N3CCN(c4ccccc4)CC3)cc2)cc1 reads < 5.30

The reported pIC50 value, KIAA 1361 (baculovirus expressed human KIAA 1361 kinase domain 2-322) (Homo sapiens), for O=C(CNC(=O)c1ccc(-n2ccnc2)cc1)NC1CCCc2ccccc21 (stereo not drawn) reads 5.30 to 6.30

* * *

The reader will find pIC50 measurements below, all made with JIK (Homo sapiens, UniProt Q9H2K8).
Sequence (Q9H2K8 2-318): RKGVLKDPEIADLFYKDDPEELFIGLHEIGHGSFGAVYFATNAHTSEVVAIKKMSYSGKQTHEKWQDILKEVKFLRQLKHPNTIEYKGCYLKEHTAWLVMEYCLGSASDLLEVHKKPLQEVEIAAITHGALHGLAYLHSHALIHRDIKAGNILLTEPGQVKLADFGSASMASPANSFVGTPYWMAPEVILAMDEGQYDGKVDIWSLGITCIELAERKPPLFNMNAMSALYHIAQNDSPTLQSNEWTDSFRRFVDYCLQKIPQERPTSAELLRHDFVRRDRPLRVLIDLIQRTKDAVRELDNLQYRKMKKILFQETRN
pIC50: −log10 of the molar value.

Use the examples below as a reference point.
1. O=C(CNC(=O)c1cnc2ccccc2c1)Nc1cccc2c1CCCC2 [Entry 87] :: < 5.30
2. CCc1ccc(-c2ccc(C(=O)NCC(=O)NC3CNCc4ccccc43)cc2)cc1 (stereo not drawn) [Entry 96] :: 5.30 to 6.30
3. COc1ccc(/C=C/C(=O)N[C@@H](Cc2c[nH]c3ccccc23)C(=O)NC2CCCc3ccccc32)cc1OC (stereo partly drawn) [Entry 17] :: 6.30 to 7.30
4. O=C(CNC(=O)c1cnc2ccccc2c1)NC1CCCc2ccccc21 (stereo not drawn) [Entry 46] :: < 5.30
5. CCOCCCNC(=O)c1ccc(C(=O)NCC2COc3ccccc3O2)cc1N (stereo not drawn) [Entry 62] :: < 5.30
6. O=C(CNC(=O)c1ccc(-c2ccccc2)cc1)NC1CCCc2ccccc21 (stereo not drawn) [Entry 43] :: > 7.30

The reported pIC50 value, JIK (Homo sapiens, UniProt Q9H2K8), for CCCCc1ccc(NC(=O)N2CCC[C@H]2C(=O)NCc2ccc(Cl)c(Cl)c2)cc1 [Entry 22] reads 6.30 to 7.30

The reported pIC50 value, JIK (Homo sapiens, UniProt Q9H2K8), for CCc1ccc(-c2ccc(C(=O)NCC(=O)NCc3ccccc3C(F)(F)F)cc2)cc1 [Entry 79] reads 6.30 to 7.30

The reported pIC50 value, JIK (Homo sapiens, UniProt Q9H2K8), for CCc1ccc(-c2ccc(C(=O)NCC(=O)Nc3nc4ccc(OC)cc4s3)cc2)cc1 [Entry 64] reads < 5.30
